Field: pIC50. Provide a value for each of the compounds that follow.
# test.target: UniProtKB P08311
# Sequence (P08311 whole entry): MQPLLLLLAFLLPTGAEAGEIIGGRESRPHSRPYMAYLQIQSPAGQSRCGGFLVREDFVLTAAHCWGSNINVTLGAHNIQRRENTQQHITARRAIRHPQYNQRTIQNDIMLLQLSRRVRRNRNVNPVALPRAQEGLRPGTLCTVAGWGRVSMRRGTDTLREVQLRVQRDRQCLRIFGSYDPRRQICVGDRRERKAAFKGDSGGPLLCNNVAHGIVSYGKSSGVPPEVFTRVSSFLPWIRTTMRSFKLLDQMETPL
# procedure.text: Blockade of cathepsin G processing in human U937 cells by densitometry
# Format: cell-based, U-937
Hey, just a heads up that pIC50 is the negative log base 10 of the concentration in molar.

So what does the record say about pIC50 for N#C[C@@]1(NC(=O)[C@@H](N)Cc2cccs2)C[C@@H]1c1ccccc1.O=C(O)C(F)(F)F ? 6.82

And then N#C[C@]1(NC(=O)[C@@H](N)Cc2ccccc2F)C[C@H]1c1ccccc1 , what is it? 5.92

Check N#C[C@@]1(NC(=O)C(N)Cc2sccc2F)C[C@@H]1c1ccccc1 (stereo partly specified) too. 7.05

Thanks! And CCOC(=O)[C@H]1O[C@@H]1C(=O)N[C@@H](CC(C)C)C(=O)NCCC(C)C ? 5.96

====

# test.target: Cathepsin S (Homo sapiens)
# Sequence (P25774 whole entry): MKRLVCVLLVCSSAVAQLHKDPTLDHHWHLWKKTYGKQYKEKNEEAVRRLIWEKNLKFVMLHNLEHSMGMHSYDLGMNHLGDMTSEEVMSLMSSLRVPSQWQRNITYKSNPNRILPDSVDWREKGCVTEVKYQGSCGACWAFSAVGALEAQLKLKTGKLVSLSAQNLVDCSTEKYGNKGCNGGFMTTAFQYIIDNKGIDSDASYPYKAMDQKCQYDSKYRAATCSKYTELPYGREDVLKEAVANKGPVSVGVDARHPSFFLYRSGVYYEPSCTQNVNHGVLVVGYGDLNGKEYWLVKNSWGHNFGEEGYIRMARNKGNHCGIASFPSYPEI
# procedure.text: Inhibition of human recombinant cathepsin S after 10 mins
parameter: IC50 (nM)
Please reply with the bare figure in nM and do not write the unit itself.

Report IC50 for CC(C)C[C@@H](NC(=O)N1CCOCC1)C(=O)N[C@@H](/C=C/S(=O)(=O)c1ccccc1)CCc1ccccc1 tested on Cathepsin S (Homo sapiens). 1

Now give it for CC(C)C[C@H](NC(=O)[C@H]1O[C@@H]1C(=O)O)C(=O)NCCCCN=C(N)N too. 7

Okay, and CS(=O)(=O)C[C@H](N[C@@H](c1ccc(Br)cc1)C(F)(F)F)C(=O)NC1(C#N)CC1 ? 10

// next record N#C[C@@]1(NC(=O)[C@@H](N)Cc2cccs2)C[C@@H]1c1ccccc1.O=C(O)C(F)(F)F 5900

For CCC[C@H](NC(=O)C(CC(C)C)NC(=O)c1ccc(-c2ccc(I)cc2)cc1)C(=O)[CH-][N+]#N (stereo not given in full) then? 9

Now the compound N#C[C@@]1(NC(=O)C(N)Cc2sccc2F)C[C@@H]1c1ccccc1 (stereo not given in full) 33400

Then Cc1cc(C)cc(CC(NC(=O)C(c2ccccc2)c2ccccc2)C(=O)NCC#N)c1 (stereo not given) ? 470

And for N#C[C@]1(NC(=O)[C@@H](N)Cc2ccccc2F)C[C@H]1c1ccccc1 ? 1600

====

I'd be grateful if you could share measured log10 of IC50 for these entries.
# test.target: Cathepsin B (Homo sapiens)
# procedure.text: Inhibition of human recombinant cathepsin B after 10 mins
Non-standard residues stand in square brackets, D forms with d. Residues, ends and D or L forms follow the SMILES beside them. *: point of attachment. Phe(4-I) = N[C@@H](Cc1ccc(I)cc1)C(=O)O; CHN2 = [N-]=[N+]=C*
Heads up: the numbers are on a log10 scale; they represent IC50 in µM.

Query the reported log10 of IC50 for Cathepsin B (Homo sapiens); item: CCC[C@H](NC(=O)C(CC(C)C)NC(=O)c1ccc(-c2ccc(I)cc2)cc1)C(=O)[CH-][N+]#N (stereo partly specified) -1.19

Next up: CC(C)C[C@H](NC(=O)[C@H]1O[C@@H]1C(=O)O)C(=O)NCCCCN=C(N)N -2.00

One more compound: CS(=O)(=O)C[C@H](N[C@@H](c1ccc(Br)cc1)C(F)(F)F)C(=O)NC1(C#N)CC1 -0.55

Okay, and CC(C)C[C@@H](NC(=O)N1CCOCC1)C(=O)N[C@@H](/C=C/S(=O)(=O)c1ccccc1)CCc1ccccc1 ? 0.13

Please give the result for Cc1cc(C)cc(CC(NC(=O)C(c2ccccc2)c2ccccc2)C(=O)NCC#N)c1 (stereo unspecified) too. -1.40

Try [N-]=[N+]=CC(=O)[C@H](Cc1ccc(I)cc1)NC(=O)CN (H-Gly-[Phe(4-I)]-CHN2) next. 0.47

====

Please respond with reported pIC50 for every item in the list.
# test.target: Neutrophil elastase (Homo sapiens)
# Sequence (P08246 whole entry): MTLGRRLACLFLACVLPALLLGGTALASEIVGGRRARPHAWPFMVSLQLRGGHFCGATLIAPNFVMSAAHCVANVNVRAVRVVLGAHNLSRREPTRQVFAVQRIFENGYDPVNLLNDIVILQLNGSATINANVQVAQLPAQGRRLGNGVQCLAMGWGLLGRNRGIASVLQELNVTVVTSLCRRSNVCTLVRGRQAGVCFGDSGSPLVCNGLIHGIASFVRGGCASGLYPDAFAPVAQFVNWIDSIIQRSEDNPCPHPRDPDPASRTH
# procedure.text: Blockade of neutrophil elastase processing in human U937 cells after 7 days by fluorogenic substrate cleavage assay
FYI, pIC50 means -log10 of a concentration in mol per litre.

State the recorded pIC50 for this entry: N#C[C@@]1(NC(=O)C(N)Cc2sccc2F)C[C@@H]1c1ccccc1 (some centres undefined) 6.77

// query: N#C[C@]1(NC(=O)[C@@H](N)Cc2ccccc2F)C[C@H]1c1ccccc1 5.72

What about this compound? N#C[C@@]1(NC(=O)[C@@H](N)Cc2cccs2)C[C@@H]1c1ccccc1.O=C(O)C(F)(F)F 6.66

====

# test.target: UniProt P07711
# Sequence (P07711 whole entry): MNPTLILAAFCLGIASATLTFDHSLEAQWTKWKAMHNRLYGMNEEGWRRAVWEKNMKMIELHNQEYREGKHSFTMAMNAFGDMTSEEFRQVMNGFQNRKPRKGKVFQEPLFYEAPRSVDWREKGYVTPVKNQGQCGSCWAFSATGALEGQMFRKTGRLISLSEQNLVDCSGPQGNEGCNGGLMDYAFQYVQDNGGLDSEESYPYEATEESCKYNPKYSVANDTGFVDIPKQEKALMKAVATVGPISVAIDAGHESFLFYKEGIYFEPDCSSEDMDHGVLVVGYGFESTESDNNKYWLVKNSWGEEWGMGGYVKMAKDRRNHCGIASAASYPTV
# procedure.text: Inhibition of human recombinant cathepsin L after 10 mins
Non-standard residues stand in square brackets, D forms with d. Residues, ends and D or L forms follow the SMILES beside them. *: point of attachment. Phe(4-I) = N[C@@H](Cc1ccc(I)cc1)C(=O)O; CHN2 = [N-]=[N+]=C*
parameter: IC50 (µM)
Quick note: give the figure in µM, leave out the unit.

# get_value(readout='IC50', item= [N-]=[N+]=CC(=O)[C@H](Cc1ccc(I)cc1)NC(=O)CN (H-Gly-[Phe(4-I)]-CHN2) ) 29.5

Next record, please: N#C[C@@]1(NC(=O)[C@@H](N)Cc2cccs2)C[C@@H]1c1ccccc1.O=C(O)C(F)(F)F 5.4

Record: CCC[C@H](NC(=O)C(CC(C)C)NC(=O)c1ccc(-c2ccc(I)cc2)cc1)C(=O)[CH-][N+]#N (some centres undefined) 0.01

====

# test.target: UniProt P28293
# Sequence (P28293 whole entry): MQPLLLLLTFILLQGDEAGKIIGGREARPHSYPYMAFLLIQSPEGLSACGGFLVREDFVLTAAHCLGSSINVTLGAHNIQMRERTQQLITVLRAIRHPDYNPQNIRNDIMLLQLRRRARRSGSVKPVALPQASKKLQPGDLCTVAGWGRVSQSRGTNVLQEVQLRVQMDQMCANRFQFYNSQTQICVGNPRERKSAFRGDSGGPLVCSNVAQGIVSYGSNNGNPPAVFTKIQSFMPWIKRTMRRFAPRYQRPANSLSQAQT
# procedure.text: Inhibition of cathepsin G activation in beta-estradiol differentiated mouse EcoM-G cells after 24 hrs
parameter: pIC50
Please note pIC50 is a logarithmic value: minus log10 of concentration in mol/L. Answer with that number alone.

I would be grateful if you could share the reported pIC50 for N#C[C@@]1(NC(=O)C(N)Cc2sccc2F)C[C@@H]1c1ccccc1 (some centres undefined) . 6.16

Another compound: N#C[C@@]1(NC(=O)[C@@H](N)Cc2cccs2)C[C@@H]1c1ccccc1.O=C(O)C(F)(F)F 6.32

Another compound: CC(C)C[C@@H](NC(=O)N1CCOCC1)C(=O)N[C@@H](/C=C/S(=O)(=O)c1ccccc1)CCc1ccccc1 4.40

Can you handle N#C[C@]1(NC(=O)[C@@H](N)Cc2ccccc2F)C[C@H]1c1ccccc1 next? 4.76

====

# test.target: Myeloblastin (Mus musculus)
# Sequence (Q61096 whole entry): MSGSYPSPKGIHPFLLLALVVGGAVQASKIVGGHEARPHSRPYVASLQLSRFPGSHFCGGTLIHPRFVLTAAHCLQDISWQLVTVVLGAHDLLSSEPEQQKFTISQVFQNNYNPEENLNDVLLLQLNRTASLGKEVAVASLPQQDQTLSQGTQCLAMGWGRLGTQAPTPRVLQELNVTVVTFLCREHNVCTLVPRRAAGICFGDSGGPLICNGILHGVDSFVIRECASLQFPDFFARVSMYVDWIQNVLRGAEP
# procedure.text: Inhibition of proteinase-3 activation in beta-estradiol differentiated mouse EcoM-G cells after 24 hrs
parameter: IC50 (µM)
// note: answer is a bare numeric in µM

// map N#C[C@@]1(NC(=O)[C@@H](N)Cc2cccs2)C[C@@H]1c1ccccc1.O=C(O)C(F)(F)F to recorded IC50 (system: Myeloblastin (Mus musculus)) 0.14

Entry CC(C)C[C@@H](NC(=O)N1CCOCC1)C(=O)N[C@@H](/C=C/S(=O)(=O)c1ccccc1)CCc1ccccc1 please 21.2

Now consider N#C[C@]1(NC(=O)[C@@H](N)Cc2ccccc2F)C[C@H]1c1ccccc1 and answer again. 4.55

Proceed to N#C[C@@]1(NC(=O)C(N)Cc2sccc2F)C[C@@H]1c1ccccc1 (stereo partly specified) 0.15

====

# test.target: Pro-cathepsin H (Homo sapiens, UniProt P09668)
# Sequence (P09668 116-335 limits assumed, other chains not shown): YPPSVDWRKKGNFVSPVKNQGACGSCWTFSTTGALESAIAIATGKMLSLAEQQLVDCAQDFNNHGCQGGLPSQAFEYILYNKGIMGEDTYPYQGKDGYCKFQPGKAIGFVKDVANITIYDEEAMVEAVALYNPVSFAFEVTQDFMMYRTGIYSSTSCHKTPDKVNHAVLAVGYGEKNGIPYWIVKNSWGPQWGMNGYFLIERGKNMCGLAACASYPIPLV
# procedure.text: Inhibition of human recombinant cathepsin H after 10 mins
Non-standard residues stand in square brackets, D forms with d. Residues, ends and D or L forms follow the SMILES beside them. *: point of attachment. Phe(4-I) = N[C@@H](Cc1ccc(I)cc1)C(=O)O; CHN2 = [N-]=[N+]=C*
parameter: IC50 (µM)
Kindly provide the numeric value in µM only, without the unit symbol.

Need IC50, item [N-]=[N+]=CC(=O)[C@H](Cc1ccc(I)cc1)NC(=O)CN (H-Gly-[Phe(4-I)]-CHN2) 9.8

Follow-up item: N#[N+][CH-]C(=O)[C@H](Cc1ccccc1)NC(=O)CN 29

Ok, now CC(C)C[C@H](NC(=O)[C@H]1O[C@@H]1C(=O)O)C(=O)NCCCCN=C(N)N [E-64] 0.19

====

Field: IC50. Provide a value for each of the compounds that follow.
# test.target: Cathepsin B (Homo sapiens)
# procedure.text: Inhibition of human recombinant cathepsin B after 10 mins

Fill blank: measured IC50 of the compound N#C[C@]1(NC(=O)[C@@H](N)Cc2ccccc2F)C[C@H]1c1ccccc1 is ____. > 3 µM

Now consider N#C[C@@]1(NC(=O)[C@@H](N)Cc2cccs2)C[C@@H]1c1ccccc1.O=C(O)C(F)(F)F . > 50 µM

Please do the same for N#[N+][CH-]C(=O)[C@H](Cc1ccccc1)NC(=O)CN as well. > 30 µM

Try the compound N#C[C@]1(NC(=O)C(N)Cc2cccs2)C[C@H]1c1ccccc1.O=C(O)C(F)(F)F (single isomer, unassigned) > 50 µM

Another compound to look at: N#C[C@@]1(NC(=O)C(N)Cc2sccc2F)C[C@@H]1c1ccccc1 (stereo not given in full) > 50 µM
